# Tested on: MDA-MB-231
# experiment_description: Antimigratory activity against human MDA-MB-231 cells assessed as reduction in cell migration at 10 uM incubated for 48 hrs
# Assay type: functional, cell-based
Calls of active or inactive are those of the source. No cut-off for these calls is given here.

mol: O=C(O)c1ccc(F)cc1Nc1cccc(OCCc2ccccc2)c1
test_system: MDA-MB-231
Activity: Active
//
mol: Cc1ccc(Nc2cccc(OCc3ccccc3)c2)c(C(=O)O)c1
test_system: MDA-MB-231
Activity: Active
//
mol: O=C(O)c1ccc(F)cc1Nc1cccc(-c2ccccc2)c1
test_system: MDA-MB-231
Activity: Active

====

# test_system: Transcriptional enhancer factor TEF-3 (Homo sapiens) (UniProt Q15561)
# Sequence (Q15561 whole entry): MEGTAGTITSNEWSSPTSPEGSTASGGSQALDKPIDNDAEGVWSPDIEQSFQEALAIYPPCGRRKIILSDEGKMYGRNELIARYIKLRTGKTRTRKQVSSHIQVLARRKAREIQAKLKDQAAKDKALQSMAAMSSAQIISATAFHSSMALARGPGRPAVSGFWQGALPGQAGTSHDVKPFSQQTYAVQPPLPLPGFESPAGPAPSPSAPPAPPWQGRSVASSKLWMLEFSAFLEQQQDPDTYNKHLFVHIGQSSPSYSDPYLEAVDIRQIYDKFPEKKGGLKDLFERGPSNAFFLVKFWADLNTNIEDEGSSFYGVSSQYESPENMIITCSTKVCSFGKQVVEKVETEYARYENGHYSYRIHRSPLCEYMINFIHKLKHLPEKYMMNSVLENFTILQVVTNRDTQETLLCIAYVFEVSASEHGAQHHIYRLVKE
# experiment_description: Inhibition of TEAD4 in human MDA-MB-231 cells assessed as decrease in TEAD-dependent Axl gene expression at 10 uM incubated for 24 hrs by RT-qPCR analysis
# Type: cell-based
The source made the active and inactive calls. No cut-off for these calls is given here.
Pick one: TRUE for active, FALSE for inactive

Take a look at these entries with their results.
mol: O=C(O)c1ccc(F)cc1Nc1cccc(OCc2ccccc2)c1
qualitative_label: FALSE
--
mol: O=C(O)c1ccc(F)cc1Nc1ccccc1-c1cccs1
qualitative_label: FALSE
--
mol: Cc1ccc(Nc2cccc(OCc3ccccc3)c2)c(C(=O)O)c1
qualitative_label: FALSE

(Q) For "O=C(O)c1ccccc1Nc1cccc(C(F)(F)F)c1" , what call appears in the results of this test?
(A) FALSE

(Q) For "O=C(O)c1ccc(F)cc1Nc1cccc(-c2ccccc2)c1" , what call appears in the results of this test?
(A) TRUE

(Q) For "O=C(O)c1cccnc1Nc1cccc(OCCc2ccccc2)c1" , what call appears in the results of this test?
(A) FALSE

(Q) For "O=C(O)c1cccnc1Nc1cccc(C(F)(F)F)c1" , what call appears in the results of this test?
(A) FALSE

(Q) For "O=C(O)c1ccc(F)cc1Nc1cccc(OCCc2ccccc2)c1" , what call appears in the results of this test?
(A) TRUE

====

# test_system: Transcriptional enhancer factor TEF-3 (Homo sapiens)
# experiment_description: Inhibition of TEAD4 in human MDA-MB-231 cells assessed as decrease in TEAD-dependent CTGF gene expression at 10 uM incubated for 24 hrs by RT-qPCR analysis
# Type: cell-based
Active and inactive are the calls of the source. The rule behind the calls is not given here.
Pick one: active, inactive

mol: Cc1ccc(Nc2cccc(OCc3ccccc3)c2)c(C(=O)O)c1
qualitative_label: active

mol: O=C(O)c1ccc(F)cc1Nc1cccc(OCCc2ccccc2)c1
qualitative_label: active

mol: O=C(O)c1ccc(F)cc1Nc1cccc(-c2ccccc2)c1
qualitative_label: active

mol: O=C(O)c1cccnc1Nc1cccc(C(F)(F)F)c1
qualitative_label: inactive

mol: O=C(O)c1cccnc1Nc1cccc(OCCc2ccccc2)c1
qualitative_label: inactive

(Q) For "O=C(O)c1ccc(F)cc1Nc1ccccc1-c1cccs1" , what call appears in the results of this test?
(A) inactive

(Q) For "O=C(O)c1ccc(F)cc1Nc1cccc(OCc2ccccc2)c1" , what call appears in the results of this test?
(A) active

(Q) For "O=C(O)c1ccccc1Nc1cccc(C(F)(F)F)c1" , what call appears in the results of this test?
(A) inactive

====

# test_system: Transcriptional enhancer factor TEF-3 (Homo sapiens)
# experiment_description: Inhibition of TEAD4 in human MDA-MB-231 cells assessed as decrease in TEAD-dependent Cyr61 gene expression at 10 uM incubated for 24 hrs by RT-qPCR analysis
# Assay type: cell-based
Activity calls are given as the source filed them. The calls are words filed in the database; no cut-off is given here.
Pick one: label 1 for active, label 0 for inactive

mol: O=C(O)c1ccc(F)cc1Nc1ccccc1-c1cccs1
test_system: Transcriptional enhancer factor TEF-3 (Homo sapiens)
qualitative_label: label 0
//
mol: O=C(O)c1ccc(F)cc1Nc1cccc(OCc2ccccc2)c1
test_system: Transcriptional enhancer factor TEF-3 (Homo sapiens)
qualitative_label: label 0
//
mol: O=C(O)c1cccnc1Nc1cccc(C(F)(F)F)c1
test_system: Transcriptional enhancer factor TEF-3 (Homo sapiens)
qualitative_label: label 0
//
mol: O=C(O)c1ccccc1Nc1cccc(C(F)(F)F)c1
test_system: Transcriptional enhancer factor TEF-3 (Homo sapiens)
qualitative_label: label 0
//
mol: Cc1ccc(Nc2cccc(OCc3ccccc3)c2)c(C(=O)O)c1
test_system: Transcriptional enhancer factor TEF-3 (Homo sapiens)
qualitative_label: label 0

(Q) For "O=C(O)c1ccc(F)cc1Nc1cccc(OCCc2ccccc2)c1" , what call appears in the results of this test?
(A) label 1

(Q) For "O=C(O)c1ccc(F)cc1Nc1cccc(-c2ccccc2)c1" , what call appears in the results of this test?
(A) label 1

(Q) For "O=C(O)c1cccnc1Nc1cccc(OCCc2ccccc2)c1" , what call appears in the results of this test?
(A) label 0

====

# test_system: Transcriptional enhancer factor TEF-3 (Homo sapiens) (UniProt Q15561)
# experiment_description: Inhibition of TEAD4 in human MDA-MB-231 cells assessed as decrease in TEAD-dependent NF2 gene expression at 10 uM incubated for 24 hrs by RT-qPCR analysis
# Type: cell-based
Active and inactive are the calls of the source. No cut-off for these calls is given here.
Pick one: 1 (yes) (active), 0 (no) (inactive)

Take a look at these entries with their results.
mol: Cc1ccc(Nc2cccc(OCc3ccccc3)c2)c(C(=O)O)c1
qualitative_label: 1 (yes)
//
mol: O=C(O)c1ccc(F)cc1Nc1ccccc1-c1cccs1
qualitative_label: 0 (no)

(Q) For "O=C(O)c1ccc(F)cc1Nc1cccc(-c2ccccc2)c1" , what call appears in the results of this test?
(A) 1 (yes)

(Q) For "O=C(O)c1cccnc1Nc1cccc(C(F)(F)F)c1" , what call appears in the results of this test?
(A) 0 (no)

(Q) For "O=C(O)c1ccccc1Nc1cccc(C(F)(F)F)c1" , what call appears in the results of this test?
(A) 0 (no)

(Q) For "O=C(O)c1cccnc1Nc1cccc(OCCc2ccccc2)c1" , what call appears in the results of this test?
(A) 0 (no)

(Q) For "O=C(O)c1ccc(F)cc1Nc1cccc(OCc2ccccc2)c1" , what call appears in the results of this test?
(A) 1 (yes)

(Q) For "O=C(O)c1ccc(F)cc1Nc1cccc(OCCc2ccccc2)c1" , what call appears in the results of this test?
(A) 1 (yes)
